Property: log p HCO2H; scope: individual compounds
TEST_SUMMARY: log P by HPLC on reversed-phase column (C18), EEC Directive 79/831 Annex V.A8
Type: physicochemical
TEST_CONTEXT: C18, 40° C., aqueous formic acid / acetonitrile
RECORDED_METRIC: log p HCO2H

Cc1cc(N=CN2CCCCC2)c(Cl)cc1Oc1ccc(Cl)c(C(C)(C)C)c1    3.25
CCN(C)C=Nc1cc(C)c(Oc2cccc(C(C)C)c2)cc1Cl    2.38
Cc1cc(Oc2ccc(Cl)c(C(F)(F)F)c2)c(C)cc1N=CN1CCCCC1    2.59
CN(C)C=Nc1cc(Cl)c(Oc2ccc(Cl)c(C(F)(F)F)c2)cc1Cl    2.45
Cc1cc(Oc2ccc(Cl)c(C(C)(C)C)c2)c(Cl)cc1N=CN(C)C1CC1    3.24
Cc1cc(N=CN2CCCCC2)c(Cl)cc1Oc1ccc(Cl)c(C(C)C)c1    3
CCN(C)C=Nc1cc(C)c(CCc2ccc(C(F)(F)F)cc2)cc1C    2.45
CCN(C)C=Nc1cc(Cl)c(Oc2ccc(Br)c(C(C)C)c2)cc1C    2.84
Cc1cc(N=CN2CCCCC2)c(Cl)cc1Oc1cccc(C(C)C)c1    2.62
CCN(C)C=Nc1cc(C)c(CCc2ccccc2F)cc1C    2.45
Cc1cc(N=CN(C)C)c(Cl)cc1Oc1ccc(Cl)c(C(C)(C)C)c1    2.65
FC(F)(F)c1cc(Oc2cc(Cl)c(N=CN3CCCCC3)cc2Cl)ccc1Cl    3
Clc1cc(Oc2ccccc2)c(Cl)cc1N=CN1CCCCC1    2.12
Cc1cc(N=CN2CCCCC2)c(Cl)cc1Oc1cccc(Oc2ccccc2)c1    2.66
CC(C)(C)c1cc(Oc2cc(Cl)c(N=CN3CCCCC3)cc2Cl)ccc1Cl    3.62
Cc1cc(N=CN(C)C(C)C)c(Cl)cc1Oc1ccc(Cl)c(C(F)(F)F)c1    2.55
Cc1cc(N=CN(C)C(C)C)c(Cl)cc1Oc1ccc(C(C)C)cc1    2.62
Cc1cc(N=CN2CCCCC2)c(Cl)cc1Oc1ccc(C(C)C)cc1    2.64

====

Property: log p acidic; scope: individual compounds
TEST_SUMMARY: log P by HPLC on reversed-phase column (C18), EEC Directive 79/831 Annex V.A8
Type: physicochemical
TEST_CONTEXT: C18, 40° C., acidic
RECORDED_METRIC: log p acidic

Cc1cc(Oc2cc(C(C)(C)C)nn2C)c(Cl)cc1N=CN1CCCCC1    1.90
CC(C)(C)c1cc(Oc2cc(F)c(N=CN3CCCCC3)cc2F)ccc1Cl    2.71
CCN(C)C=Nc1cc(Br)c(Oc2ccc(Cl)c(C(C)(C)C)c2)cc1C    2.67
Cc1cc(Oc2ccc(Br)c(C(C)C)c2)c(Cl)cc1N=CN(C)C(C)C    3.21
Cc1cc(Oc2cc(Cl)cc(C(F)(F)F)c2)c(Cl)cc1N=CN1CCCC1    2.66
CCN(C)C=Nc1cc(C)c(Oc2cc(Cl)cc(C(C)C)n2)cc1C    2.18
CCN(C)C=Nc1cc(C)c(Oc2nc(C(C)(C)C)c(Cl)s2)cc1C    2.76
CCN(C)C=Nc1cc(Cl)c(Oc2cccc(C(C)(C)C)c2)cc1I    2.98
COc1cc(Oc2ccc(Cl)c(C(F)(F)F)c2)c(OC)cc1N=CN(C)C(C)C    2.35
CCN(C)C=Nc1cc(C)c(Oc2nc(C(C)(C)C)ns2)cc1Cl    2.1
CCN(C)C=Nc1cc(Cl)c(Oc2nc(C(C)(C)C)ns2)cc1C    2.01
CCN(C)C=Nc1cc(F)c(-c2ccc(Cl)c(C(F)(F)F)c2)cc1F    2.22
Cc1cc(-c2cccc(C(C)C)c2)c(C(F)F)cc1N=CN1CCCCC1    2.6
CCN(C)C=Nc1cc(F)c(-c2ccc(OC(C)(C)C)cc2)cc1C    2.23
CCN(C)C=Nc1cc(C)c(Oc2ccc(Cl)c(C(F)(F)F)c2)cc1C    2.38
Cc1cc(Oc2nc(C(C)(C)C)ns2)c(Cl)cc1N=CN1CCCCC1    2.21
Cc1cc(Oc2cc(F)cc(Br)c2)c(C)cc1N=CN(C)C(C)C    2.37
CCN(C)C=Nc1cc(F)c(Oc2cccc(C(C)(C)C)c2)cc1F    2.4
CCCN(C)C=Nc1cc(Cl)c(Oc2ccc(Cl)c(C(C)(C)C)c2)cc1C    3.06
CCN(C)C=Nc1cc(F)c(-c2nnc(C3CC3)s2)cc1C    1.32
CCCN(C)C=Nc1cc(Cl)c(Oc2cc(Cl)cc(C(F)(F)F)c2)cc1C    2.83
CCN(C)C=Nc1cc(C)c(Oc2cc(F)cc(C(F)(F)F)c2)cc1C    2.31
Cc1cc(Oc2cc(Cl)cc(C(F)(F)F)c2)c(Cl)cc1N=CN(C)C    2.51
CCN(C)C=Nc1cc(Cl)c(Oc2cc(C(C)C)nn2C)cc1C    1.65
CCCN(C)C=Nc1cc(Cl)c(Oc2ccc(Br)c(C(C)C)c2)cc1C    2.93
CCN(C)C=Nc1cc(C(F)(F)F)c(-c2ccc(C(C)(C)C)cc2)cc1Cl    2.74
CCN(C)C=Nc1cc(F)c(-c2ccc(C(C)(C)C)cc2)cc1C    2.38
CCCN(C)C=Nc1cc(C)c(Oc2ccc(Br)c(C(C)C)c2)cc1C    2.93
Cc1cc(Oc2cc(F)cc(C(F)(F)F)c2)c(C)cc1N=CN1CCCCC1    2.29
Cc1cc(Oc2cccc(C(C)(C)C)c2)c(C)cc1N=CN(C)C(C)C    2.96
CCN(C)C=Nc1cc(C)c(-c2ccc(C(C)(C)C)cc2)cc1C    2.69
